assay: RP, Waters ACQUITY UPLC BEH C18, 100 × 2.1 mm, 1.7 µm; A: water + 0.1% formic acid, pH 3; B: 80% acetonitrile + 20% acetone + 0.1% formic acid, pH 3; gradient (min/%B) 0/0 6/100; settings: stereoisomer not certain
Here, each record is paired with measured LC retention time data.
MEASUREMENT_NAME: LC retention time (min)

{"MOLECULE": "CC(C)C(NC(=O)C(N)Cc1ccccc1)C(=O)O (stereo unspecified)", "QUANTITATIVE_RESULT": 1.63}
{"MOLECULE": "CC1NC(=NCCCC(N)C(=O)O)NC1=O (stereo unspecified)", "QUANTITATIVE_RESULT": 0.585}
{"MOLECULE": "CC(CO)C(=O)O (stereo not drawn) [beta-hydroxyisobutyric acid]", "QUANTITATIVE_RESULT": 1.4}
{"MOLECULE": "O=Cc1ccc(O)cc1 [4-hydroxybenzaldehyde]", "QUANTITATIVE_RESULT": 1.91}
{"MOLECULE": "O=c1[nH]c(=O)c2[nH]c(=O)[nH]c2[nH]1", "QUANTITATIVE_RESULT": 0.752}
{"MOLECULE": "CC(O)CC(=O)[O-] (stereo not drawn) [beta-hydroxybutyric acid]", "QUANTITATIVE_RESULT": 1.78}
